assay: NCI Yeast Anticancer Drug Screen. Data for the sgs1 mgt1 strain (AID 161);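 further: 0% = growth of cultures given vehicle only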; settings: S. cerevisiae sgs1 mgt1 strain, at 50.0 µM, stronger effect = higher value
About 79,000 compounds went through this panel and 15% of them were active in at least one assay; those are over-represented in the sample as a whole.
quantity_name: growth inhibition (%)
Field: numeric (%). Do not append units.

I would be grateful if you could share the reported growth inhibition for C=CCC1(C)C(=O)CCC1=O . 0.6

I would be grateful if you could share the reported growth inhibition for CCOc1ccc(C(C)c2cc3c(cc2OCCO)OCO3)cc1 (stereo unspecified) . 69

I would be grateful if you could share the reported growth inhibition for CC12CCC(C/C1=N\N=C(N)N)C2(C)C (stereo unspecified) . -2.2

I would be grateful if you could share the reported growth inhibition for Oc1[nH]c2ccccc2c1N=Nc1nc(-c2ccc(Br)cc2)cs1 . -17.4

I would be grateful if you could share the reported growth inhibition for Cc1cc(OC(=O)c2ccccc2)cc(C)c1OC(=O)c1ccccc1 . 0.1

I would be grateful if you could share the reported growth inhibition for c1ccc(Cc2nnc(Cc3ccccc3)nn2)cc1 . 2.7

I would be grateful if you could share the reported growth inhibition for O=C1CSC(=S)N1Nc1ccccc1 . 22.2

I would be grateful if you could share the reported growth inhibition for Cc1noc2cccc(O)c12 . 15.8

I would be grateful if you could share the reported growth inhibition for NC1(c2ccccc2)C2CC3CC(C2)CC1C3 (stereo unspecified) . -9.1

I would be grateful if you could share the reported growth inhibition for COc1ccc(OC)c(NC(=O)C(=O)C(C(=O)c2ccccc2F)C2OC(=O)c3ccccc32)c1 (stereo unspecified) . -27.9

I would be grateful if you could share the reported growth inhibition for Cc1c(O)c(=O)ccn1C1OC(CO)C(O)C1O (stereo unspecified) . 25.5

I would be grateful if you could share the reported growth inhibition for O=C1NC(N2CCCC(CO)C2)=N/C1=C\c1cccs1 (stereo unspecified) . -3.4

I would be grateful if you could share the reported growth inhibition for Cc1ccc(N2C(=O)/C(=C/c3ccc(N(CCC#N)CCC#N)cc3)N=C2COc2ccc(Cl)cc2Cl)cc1 . -7.25

I would be grateful if you could share the reported growth inhibition for CC(C)=C(C)CCC(C)CC(C)O (stereo unspecified) . -0.05

I would be grateful if you could share the reported growth inhibition for Cc1cc(C)c2cccc-2c(C)c1 . -12.3

I would be grateful if you could share the reported growth inhibition for CCN(CC)CCOC1CCCCC1Cc1ccccn1 (stereo unspecified) . 8.85
